Listing of entries alongside the reported inhibition.
- studySystem: Amyloid-beta precursor protein (Homo sapiens)
- experimentNotes: Inhibition of amyloid beta (1-42) (unknown origin) aggregation at 20 uM after 48 hrs by thioflavin-T based fluorimetric assay relative to control
metric: inhibition (%)

{"molecularString": "CCc1ccccc1SCCOc1c(OC)ccc2cc3[n+](cc12)CCc1cc2c(cc1-3)OCO2", "studySystem": "Amyloid-beta precursor protein (Homo sapiens)", "quantitativeReadout": 74.8}
{"molecularString": "COc1ccc2cc3[n+](cc2c1OCCSc1cccc(C)c1)CCc1cc2c(cc1-3)OCO2", "studySystem": "Amyloid-beta precursor protein (Homo sapiens)", "quantitativeReadout": 72.3}
{"molecularString": "COc1ccc2cc3[n+](cc2c1OCCCCSc1ccccc1)CCc1cc2c(cc1-3)OCO2", "studySystem": "Amyloid-beta precursor protein (Homo sapiens)", "quantitativeReadout": 69.1}
{"molecularString": "Oc1ccc(/C=C/c2cc(O)cc(O)c2)cc1", "studySystem": "Amyloid-beta precursor protein (Homo sapiens)", "quantitativeReadout": 61.1}
{"molecularString": "COc1ccc2cc3[n+](cc2c1OCCSc1ccc(C)cc1)CCc1cc2c(cc1-3)OCO2", "studySystem": "Amyloid-beta precursor protein (Homo sapiens)", "quantitativeReadout": 70}

###

molecules and their reported inhibition
- studySystem: Amyloid-beta precursor protein (Homo sapiens) (UniProt P05067)
- Sequence (P05067 whole entry): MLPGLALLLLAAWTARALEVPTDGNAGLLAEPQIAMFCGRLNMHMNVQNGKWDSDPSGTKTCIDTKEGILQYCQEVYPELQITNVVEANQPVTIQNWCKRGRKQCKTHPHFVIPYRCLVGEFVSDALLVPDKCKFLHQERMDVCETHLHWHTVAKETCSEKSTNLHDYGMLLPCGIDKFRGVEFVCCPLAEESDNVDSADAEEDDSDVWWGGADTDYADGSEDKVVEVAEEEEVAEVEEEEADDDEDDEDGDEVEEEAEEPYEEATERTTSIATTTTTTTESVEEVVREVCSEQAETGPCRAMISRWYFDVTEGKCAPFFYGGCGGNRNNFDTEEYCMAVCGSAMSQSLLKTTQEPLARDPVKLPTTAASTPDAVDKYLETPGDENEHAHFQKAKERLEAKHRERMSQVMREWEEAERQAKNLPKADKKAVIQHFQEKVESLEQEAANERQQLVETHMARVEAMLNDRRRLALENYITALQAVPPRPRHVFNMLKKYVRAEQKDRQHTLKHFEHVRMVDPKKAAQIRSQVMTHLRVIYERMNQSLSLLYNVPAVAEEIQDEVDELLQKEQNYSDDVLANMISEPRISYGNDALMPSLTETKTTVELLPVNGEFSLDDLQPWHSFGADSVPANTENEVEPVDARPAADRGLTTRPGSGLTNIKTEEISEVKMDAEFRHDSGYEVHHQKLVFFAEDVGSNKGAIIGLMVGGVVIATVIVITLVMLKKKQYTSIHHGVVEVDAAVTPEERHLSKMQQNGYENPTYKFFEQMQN
- experimentNotes: Inhibition of amyloid beta (1-42) (unknown origin) aggregation at 20 uM after 48 hrs by thioflavin-T based fluorimetric assay relative to control

{"molecularString": "COc1ccc2cc3[n+](cc2c1OCCSc1ccccc1)CCc1cc2c(cc1-3)OCO2", "inhibition [%]": 70.4}
{"molecularString": "COc1ccc2cc3[n+](cc2c1OC)CCc1cc2c(cc1-3)OCO2", "inhibition [%]": 35.5}
{"molecularString": "COc1ccc2cc3[n+](cc2c1OCCSc1ccccc1Cl)CCc1cc2c(cc1-3)OCO2", "inhibition [%]": 65.1}
{"molecularString": "COc1ccccc1SCCOc1c(OC)ccc2cc3[n+](cc12)CCc1cc2c(cc1-3)OCO2", "inhibition [%]": 76.8}
{"molecularString": "COc1ccc2cc3[n+](cc2c1OCCCSc1ccccc1)CCc1cc2c(cc1-3)OCO2", "inhibition [%]": 70.6}
{"molecularString": "COc1ccc2cc3[n+](cc2c1OCCSc1ccccc1F)CCc1cc2c(cc1-3)OCO2", "inhibition [%]": 73.3}
{"molecularString": "COc1ccc2cc3[n+](cc2c1OCCSc1ccccc1C)CCc1cc2c(cc1-3)OCO2", "inhibition [%]": 73.4}

###

compounds and their reported pKi
- studySystem: Acetylcholinesterase (Electrophorus electricus)
- Sequence (O42275 whole entry): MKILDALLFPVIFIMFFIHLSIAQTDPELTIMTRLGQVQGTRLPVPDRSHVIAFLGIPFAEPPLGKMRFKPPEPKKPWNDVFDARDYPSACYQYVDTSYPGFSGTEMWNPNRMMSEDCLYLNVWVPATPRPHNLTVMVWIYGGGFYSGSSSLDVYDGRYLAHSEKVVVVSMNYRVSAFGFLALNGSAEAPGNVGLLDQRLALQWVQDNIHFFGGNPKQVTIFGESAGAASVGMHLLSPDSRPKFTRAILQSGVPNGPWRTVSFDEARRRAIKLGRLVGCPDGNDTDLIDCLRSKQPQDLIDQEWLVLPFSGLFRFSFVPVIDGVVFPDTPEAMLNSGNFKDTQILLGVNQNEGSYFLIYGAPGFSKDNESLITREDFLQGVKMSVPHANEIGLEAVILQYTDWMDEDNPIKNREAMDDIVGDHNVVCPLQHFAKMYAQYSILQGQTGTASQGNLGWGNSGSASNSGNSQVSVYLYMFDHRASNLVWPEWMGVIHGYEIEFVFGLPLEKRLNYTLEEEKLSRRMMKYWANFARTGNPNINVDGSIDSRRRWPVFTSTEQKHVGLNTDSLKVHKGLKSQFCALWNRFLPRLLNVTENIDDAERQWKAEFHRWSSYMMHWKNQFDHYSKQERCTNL
pKi: −log10 of the molar value.

{"molecularString": "COc1ccc2cc3[n+](cc2c1OCCSc1ccccc1Cl)CCc1cc2c(cc1-3)OCO2", "pKi": 7.74}
{"molecularString": "COc1ccc2cc3[n+](cc2c1OCCSc1ccccc1C)CCc1cc2c(cc1-3)OCO2", "pKi": 7.15}

###

- studySystem: UniProt:O42275
hey, just use Yes if measured IC50 is less than 200 nM, otherwise No

{"molecularString": "COc1ccc2cc3[n+](cc2c1OCCSc1ccccc1)CCc1cc2c(cc1-3)OCO2", "classLabel": "Yes"}
{"molecularString": "COc1ccc2cc3[n+](cc2c1OCCSc1ccccc1F)CCc1cc2c(cc1-3)OCO2", "classLabel": "Yes"}
{"molecularString": "CCc1ccccc1SCCOc1c(OC)ccc2cc3[n+](cc12)CCc1cc2c(cc1-3)OCO2", "classLabel": "Yes"}
{"molecularString": "COc1ccc2cc3[n+](cc2c1OCCCSc1ccccc1)CCc1cc2c(cc1-3)OCO2", "classLabel": "No"}
{"molecularString": "COc1ccc2cc3[n+](cc2c1OCCSc1cccc(C)c1)CCc1cc2c(cc1-3)OCO2", "classLabel": "No"}
{"molecularString": "COc1ccc2cc3[n+](cc2c1OCCSc1ccccc1Cl)CCc1cc2c(cc1-3)OCO2", "classLabel": "Yes"}
{"molecularString": "COc1ccc2cc3[n+](cc2c1OCCSc1cccc(Cl)c1)CCc1cc2c(cc1-3)OCO2", "classLabel": "No"}
{"molecularString": "COc1ccc2cc3[n+](cc2c1OCCSc1ccccc1C)CCc1cc2c(cc1-3)OCO2", "classLabel": "Yes"}
{"molecularString": "COc1ccc2cc3[n+](cc2c1OCCCCCCSc1ccccc1)CCc1cc2c(cc1-3)OCO2", "classLabel": "No"}
{"molecularString": "COc1ccc2cc3[n+](cc2c1OCCCCSc1ccccc1)CCc1cc2c(cc1-3)OCO2", "classLabel": "Yes"}
